- TEST_TARGET: C-C chemokine receptor type 3 (Homo sapiens, UniProt P51677)
- ASSAY_EXPLANATION: Displacement of [125I] eotaxin from human CCR3 receptor in CHO cells
- Assay type: cell-based
- RECORDED_CONDITIONS: cho
MEASURED_METRIC: IC50 (nM)
Answers are plain numbers, in nM.

Lookup: Answer with the recorded IC50 for the compound listed here: CCc1cc(NC(=O)N[C@H](C)[C@@H](O)CN(CC)CCCc2ccc(F)cc2)cc(-c2nnnn2C)c1 (stereo in doubt; 5Et)
Found: 0.4

----------
- TEST_TARGET: C-C chemokine receptor type 3 (Homo sapiens, UniProt P51677)
- ASSAY_EXPLANATION: Displacement of [125I] eotaxin from human CCR3 receptor in CHO cells
- Format: cell-based
For each of the compounds below, state its IC50.
Give bare numbers, in nM.

CCc1cc(NC(=O)N[C@H](C)[C@@H](O)CN(CC)[C@@H](C)CCc2ccc(F)cc2)cc(-c2nnnn2C)c1 | 0.2
CCc1cc(NC(=O)N[C@H](C)[C@@H](O)CNCCCc2ccc(F)cc2)cc(-c2nnnn2C)c1 | 0.3
CCN(C[C@H](O)[C@@H](C)NC(=O)Nc1cccc(-c2nnnn2C)c1)[C@@H](C)CCc1ccc(F)cc1 | 2.5
CCc1cc(NC(=O)N[C@H](C)[C@@H](O)CN(CC)CCCc2ccc(F)cc2)cc(-c2nnnn2C)c1 (stereo in doubt; 5b) | 0.4
CCc1cc(NC(=O)N[C@H](C)[C@@H](O)CN(CCCc2ccc(F)cc2)CC(F)(F)F)cc(-c2nnnn2C)c1 | 9
CN(CCCc1ccc(F)cc1)C[C@@H]1CCCC[C@H]1NC(=O)Nc1cccc(-c2nnnn2C)c1 | 0.6
C[C@H]([C@H](O)c1ccccc1)N(C)C[C@H](O)[C@@H](C)NC(=O)Nc1cccc(-c2nnnn2C)c1 | 577

Lookup: Please indicate IC50 recorded for C[C@H]([C@@H](O)c1ccccc1)N(C)C[C@H](O)[C@@H](C)NC(=O)Nc1cccc(-c2nnnn2C)c1
Found: 238

----------
- TEST_TARGET: C-C chemokine receptor type 3 (Homo sapiens, UniProt P51677)
- ASSAY_EXPLANATION: Displacement of [125I] eotaxin from human CCR3 receptor in CHO cells
- Assay type: cell-based
MEASURED_METRIC: pIC50
Answers are plain numbers, as −log10 of the molar value.

Please review the entries below; each comes with its answer.
C[C@@H](NC(=O)Nc1cccc(-c2nnnn2C)c1)[C@@H](O)CN(CCCc1ccc(F)cc1)CC(F)(F)F | 7.23
CCCN(CCCc1ccc(F)cc1)C[C@H](O)[C@@H](C)NC(=O)Nc1cccc(-c2nnnn2C)c1 | 9.70
C[C@@H](NC(=O)Nc1cccc(-c2nnnn2C)c1)[C@@H](O)CN(CCCc1ccc(F)cc1)CC12CC3CC(CC(C3)C1)C2 | 6.38
C[C@@H](NC(=O)Nc1cccc(-c2nnnn2C)c1)[C@@H](O)CN(C)[C@@H](C)[C@@H](O)c1ccccc1 | 9.40
CCc1cc(NC(=O)N[C@H](C)[C@@H](O)CN(CCCc2ccc(F)cc2)S(C)(=O)=O)cc(-c2nnnn2C)c1 | 7.67
CCc1cc(NC(=O)N[C@H](C)[C@@H](O)CN(CCCc2ccc(F)cc2)C2CCCCC2)cc(-c2nnnn2C)c1 | 8.49
Cn1nnnc1-c1cccc(NC(=O)N[C@@H]2CCCC[C@H]2CN(CCCc2ccc(F)cc2)CC(F)(F)F)c1 | 7.22
CCc1cc(NC(=O)N[C@H](C)[C@@H](O)CN(CCCc2ccc(F)cc2)CC2CC2)cc(-c2nnnn2C)c1 | 9.22

Consider the following items and state reported pIC50 for each.
1. C[C@@H](NC(=O)Nc1cccc(-c2nnnn2C)c1)[C@@H](O)CN(CCCc1ccc(F)cc1)CC1CC1
2. C[C@@H](NC(=O)Nc1cccc(-c2nnnn2C)c1)[C@@H](O)CN(C)[C@@H](C)[C@H](O)c1ccccc1

Found:
1. 9.40
2. 8.24

Hi, could you look up pIC50 for each item in my list?
1. CCN(C[C@H](O)[C@@H](C)NC(=O)Nc1cccc(-c2nnnn2C)c1)[C@@H](C)[C@H](O)Cc1ccc(F)cc1
2. CCc1cc(NC(=O)N[C@H](C)[C@@H](O)CN(CC)[C@@H](C)[C@H](O)Cc2ccc(F)cc2)cc(-c2nnnn2C)c1
3. CCc1cc(NC(=O)N[C@H](C)[C@@H](O)CN(C)CCCc2ccc(F)cc2)cc(-c2nnnn2C)c1
4. CCN(CCCc1ccc(F)cc1)C[C@H](O)[C@@H](C)NC(=O)Nc1cccc(-c2nnnn2C)c1
5. CCc1cc(NC(=O)N[C@H](C)[C@@H](O)CN(CC)[C@@H](C)[C@@H](O)Cc2ccc(F)cc2)cc(-c2nnnn2C)c1
6. CCN(C[C@H](O)[C@@H](C)NC(=O)Nc1cccc(-c2nnnn2C)c1)[C@@H](C)[C@@H](O)Cc1ccc(F)cc1

Found:
1: 7.06; 2: 8.47; 3: 9.52; 4: 9.70; 5: 8.92; 6: 7.72

----------
I'd appreciate it if you could supply IC50 values for the items below.
- TEST_TARGET: UniProt P51677
- ASSAY_EXPLANATION: Displacement of [125I] eotaxin from human CCR3 receptor in CHO cells
- Format: cell-based
One number for each entry, in nM.

Would you be so kind as to report IC50 for each listed record?
1. C[C@@H](NC(=O)Nc1cccc(-c2nnnn2C)c1)[C@@H](O)CN(C)CCCc1ccc(F)cc1
2. CCc1cc(NC(=O)N[C@H](C)[C@@H](O)CN(CCCc2ccc(F)cc2)Cc2ccccc2)cc(-c2nnnn2C)c1
3. CCc1cc(NC(=O)N[C@H](C)[C@@H](O)CN2CCC[C@@H](Cc3ccc(F)cc3)C2)cc(-c2nnnn2C)c1
4. C[C@@H](NC(=O)Nc1cccc(-c2nnnn2C)c1)[C@@H](O)CN(CCCc1ccc(F)cc1)C1CCCCC1

Found:
1. 0.4
2. 2.5
3. 1.8
4. 2.5

----------
- TEST_TARGET: C-C chemokine receptor type 3 (Homo sapiens)
- ASSAY_EXPLANATION: Antagonist activity at human CCR3 receptor assessed as inhibition of chemotaxis in eosinophil at 3 nM
- Type: functional
- Parameters: scale not given: the % may be the effect or the level left
MEASURED_METRIC: Activity (%)
Answers are plain numbers, in %.

Recorded results for 3 compounds are shown here.
CCCN(CCCc1ccc(F)cc1)C[C@H](O)[C@@H](C)NC(=O)Nc1cccc(-c2nnnn2C)c1 | 43
C[C@@H](NC(=O)Nc1cccc(-c2nnnn2C)c1)[C@@H](O)CN(CCCc1ccc(F)cc1)CC1CC1 | 44
CCc1cc(NC(=O)N[C@H](C)[C@@H](O)CNCCCc2ccc(F)cc2)cc(-c2nnnn2C)c1 | 42

Moving on to another compound below.
Lookup: Tell me Activity reported for CCc1cc(NC(=O)N[C@H](C)[C@@H](O)CN(CCCc2ccc(F)cc2)C2CCCCC2)cc(-c2nnnn2C)c1
Found: 0

----------
- TEST_TARGET: C-C chemokine receptor type 3 (Homo sapiens, UniProt P51677)
- ASSAY_EXPLANATION: Displacement of [125I] eotaxin from human CCR3/CCR2 chimeric receptor in CHO cells
- Assay type: cell-based
MEASURED_METRIC: pIC50
One number for each entry, as −log10 of the molar value.

Lookup: Tell me pIC50 reported for C[C@@H](NC(=O)Nc1cccc(-c2nnnn2C)c1)[C@@H](O)CN1CCC[C@@H](Cc2ccc(F)cc2)C1
Found: 9.40

----------
- TEST_TARGET: C-C chemokine receptor type 3 (Homo sapiens)
- Sequence (whole entry): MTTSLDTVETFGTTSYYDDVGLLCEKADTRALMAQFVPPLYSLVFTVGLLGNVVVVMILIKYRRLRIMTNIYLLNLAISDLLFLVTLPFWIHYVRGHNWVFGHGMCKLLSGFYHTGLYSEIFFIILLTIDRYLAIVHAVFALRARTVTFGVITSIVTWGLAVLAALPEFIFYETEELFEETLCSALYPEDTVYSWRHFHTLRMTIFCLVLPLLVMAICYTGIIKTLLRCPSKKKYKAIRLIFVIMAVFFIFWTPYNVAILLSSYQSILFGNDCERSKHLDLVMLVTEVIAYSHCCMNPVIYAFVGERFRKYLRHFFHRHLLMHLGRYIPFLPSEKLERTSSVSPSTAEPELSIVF
- ASSAY_EXPLANATION: Antagonist activity at human CCR3 receptor assessed as inhibition of chemotaxis in eosinophil at 30 nM
- Format: functional
- Set-up: scale not given: the % may be the effect or the level left
MEASURED_METRIC: Activity (%)
Give bare numbers, in %.

C[C@@H](NC(=O)Nc1cccc(-c2nnnn2C)c1)[C@@H](O)CN(C)[C@@H](C)[C@@H](O)c1ccccc1 | 67
CCc1cc(NC(=O)N[C@H](C)[C@@H](O)CN(CCCc2ccc(F)cc2)C2CCCCC2)cc(-c2nnnn2C)c1 | 58
CCc1cc(NC(=O)N[C@H](C)[C@@H](O)CNCCCc2ccc(F)cc2)cc(-c2nnnn2C)c1 | 55

In the following, a different compound is considered.
Lookup: For C[C@@H](NC(=O)Nc1cccc(-c2nnnn2C)c1)[C@@H](O)CN(C)CCCc1ccc(F)cc1 , write its Activity.
Found: 0
